The measured values listed here are drawn from ChEMBL document CHEMBL5727282.

- Experimental target: Nuclear receptor ROR-gamma (Homo sapiens)
- Sequence (P51449 whole entry): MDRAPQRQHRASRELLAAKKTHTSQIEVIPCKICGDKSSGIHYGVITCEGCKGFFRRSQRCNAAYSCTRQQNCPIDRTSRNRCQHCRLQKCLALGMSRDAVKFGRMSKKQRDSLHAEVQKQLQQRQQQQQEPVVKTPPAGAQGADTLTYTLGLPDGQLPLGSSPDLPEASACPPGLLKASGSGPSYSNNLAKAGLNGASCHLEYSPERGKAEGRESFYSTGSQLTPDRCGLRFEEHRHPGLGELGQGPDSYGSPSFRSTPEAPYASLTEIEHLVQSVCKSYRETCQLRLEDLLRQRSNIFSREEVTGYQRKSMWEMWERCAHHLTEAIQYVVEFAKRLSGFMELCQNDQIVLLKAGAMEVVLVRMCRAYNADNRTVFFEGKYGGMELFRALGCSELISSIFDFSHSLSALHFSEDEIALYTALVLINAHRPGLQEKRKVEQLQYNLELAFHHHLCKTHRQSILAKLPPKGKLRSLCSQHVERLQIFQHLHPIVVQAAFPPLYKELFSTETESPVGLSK
- Method description: ROR gamma t 5xRORE Assay in Jurkat Cells (Assay 2): Compounds of the present invention were tested for ROR gamma inverse agonist activity in a cell-based, transcriptional activity assay. […] (Promega, Cat. # N1021) using KpnI and HindIII restriction sites. […] Luciferase activity in the conditioned supernatants was determined with NanoGlo assay reagents (Promega, Cat.# N1130).
pIC50: −log10 of the molar value.
Result type: pIC50

Compound smiles	Result type	Result
CCS(=O)(=O)c1ccc(C2(NC(=O)c3cnc4c(c3)CN(Cc3ccc(C(F)(F)F)cc3)[C@H]4C(C)C)CC2)nc1	pIC50	> 7.00
